Item-by-item account of Subcutaneous score
# System: Mus musculus
# Test name: The compound was tested for its ability to get to the tumor site after subcutaneous administration [Score of 2 indicates that there is a percent T/C of 50 or < 50(tumor mass 50% or < the control)]
# Type: functional
Measurement kind: Subcutaneous score

• CC(=O)N[C@H]1CCn2c1nc1c2C(=O)C(C)=C(N2CC2)C1=O = 14
• CC1=C(N2CC2)C(=O)c2nc3n(c2C1=O)CCC3OC(N)=O (centres undefined) = 6
• CC(=O)NC1CCn2c1nc1c2C(=O)C(C)=C(N2CC2)C1=O (centres undefined) = 6
• CC(=O)OC1CCn2c1nc1c2C(=O)C(C)=C(N2CC2)C1=O (centres undefined) = 8
